Measured On: T1, biotinylated synthetic human Amyloid beta 1-42 peptide (human, UniProt P05067 672-713, biotinylated (N-terminal biotin in Example 4))
T1 construct: domain: Amyloid beta 1-42 peptide; Numbers 1-42 count on the Amyloid beta peptide, not on APP; also called biotinylated human Amyloid beta 1-42; N-terminal biotin Abeta 1-42
Assay Protocol: SPR (ProteOn); biotinylated peptide on streptavidin chip, scFv in solution
Experimental: These experiments were performed essentially as described by Karlsson et al. (Karlsson et al., 1991). The chip surface was regenerated between cycles by a single 60 second injection of 10 mM Glycine pH 2.0 to remove scFv bound to the peptide. Each scFv at 100-200 nM was sequentially passed over the peptide surface for a sufficient amount of time to observe sensorgrams that could be fitted to an appropriate binding model with confidence. […]
Result Type: kon (M⁻¹ s⁻¹)
Give the value, in units of M⁻¹ s⁻¹, as a plain number.

INSERT INTO results (binder, measurement_unit, measured_value) VALUES
  ('Abet0371 scFv (scFv, V domains shown, not shown: small tags and cut ends, Purified scFv expressed in E. coli) VH: EVQLSESGGGLVQPGGSLRLSCAASHDAFPFDTMWWVRQAPGKGLEWVSVIGSSGGTTVYADSVKGRFTVSRDNSKNTLYLQMNSLRAEDTAVYYCAREWMDHSRPYYYYGMDVWGQGTLVTVSS VL: SYELTQPPSVSVSPGQTASITCSGHNISSSWVSWYQQKPGQSPVLVIYRDDKRPSGIPERFSASNSGHTATLTISGTQATDEADYYCSSQDTVTRVFGGGTKLTVL', 'M⁻¹ s⁻¹', 357000),
  ('Abet0373 scFv (scFv, V domains shown, not shown: small tags and cut ends, Purified scFv expressed in E. coli) VH: EVQLLESGGGLVQPGGSLRLSCVASGFDFERSVMWWVRQAPGKRLEWVSVIGSGKTNITYADSVKGRFTISRDNSKNTLYLQMNSLRAEDTAVYYCAREWMDHSRPYYYYGMDVWGQGTLVTVSS VL: SYELTQPPSVSVSPGQTASITCSGHNLEDKFASWYQQKPGQSPVLVIYRDDKRPSEIPERFSASNSGHTATLTISGTQATDEADYYCSSQDTVTRVFGGGTKLTVL', 'M⁻¹ s⁻¹', 185000),
  ('Abet0381 scFv (scFv, V domains shown, not shown: small tags and cut ends, Purified scFv expressed in E. coli) VH: EVQLLESGGGLVQPGGSLRLSCAASSPSFPRETMWWVRQAPGKGLEWVSVIGTQPNRLTYADSVKGRFTISRDNSKNTLYLQMNSLRAEDTAVYYCAREWMDHSRPYYYYGIDVWGQGTLVTVSP VL: SYELTQPPSVSASPGQTASITCSGHNLEDKFVSWYQQKPGQSPVLVIYRDDKRPSGIPERFSASNSGHTATLTISGTQATDEANYYCSSQDTVTRAFGGGTKLTVL', 'M⁻¹ s⁻¹', 213000),
  ('Abet0332 scFv (scFv, V domains shown, not shown: small tags and cut ends, Purified scFv expressed in E. coli) VH: EVQLLESGGGLVQPGESLRLSCAASSDSWHTDIMWWVRQAPGKRLEWVSVIGNSNKKIAYADSVKGRFTISRDNSKNTLYLQMNSLRAEDTAVYYCAREWMDHSRPYYYYGMDVWGQGTLVTVSS VL: SYELTQPPSVSVSPGQTASITCSGHNIGAKWVSWYQQKPGQSPILVIYRDDKRPSGIPERFSASNSGHTATLTISGTQATDEADYYCQAQGQVTRSFGGGTKLTVL', 'M⁻¹ s⁻¹', 329000);

Kindly review the next binder as well.
Entry Abet0379 scFv (scFv, V domains shown, not shown: small tags and cut ends, Purified scFv expressed in E. coli) VH: EVQLLESGGGLVQPGGSLRLSCAASGFDFAETPLWWVRQAPGERLEWVSVIGSNQNKTAYADSVKGRFTISRDNSKDTLYLQMNSLRAEDTAVYYCAREWMDHSRPYYYYGMDVWGQGTLVTVSS VL: QSVLTQPPSVSVSPGQTASITCSGHNLEDKFASWYQQKSGQSPVLVIYRDDKRPSGIPERFSASNSGHTATLTISGTQATDGADYYCATQDNFTRVFGGGTKLTVL , kon reported as 134000
